Reported TGI is given for each of the following compounds.
# Test system: M14 melanoma
# Assay comment: NCI tumour cell line growth inhibition, 48 h
Assay endpoint: TGI

[
  {
    "Compound": "COc1cc2c(cc1O)C(=O)O[C@@H]1CC=C3CCN(C)[C@H]3[C@H]21",
    "System name": "M14 melanoma",
    "Assay endpoint": "TGI",
    "Result": "> 25 µM"
  },
  {
    "Compound": "COc1ccc2c(c1)C(=O)c1c-2n(CCCCl)c(=O)c2cc(N)ccc12",
    "System name": "M14 melanoma",
    "Assay endpoint": "TGI",
    "Result": "> 100 µM"
  },
  {
    "Compound": "CC1=NNC(=O)C1C1C=C(c2c[nH]c3ccccc23)OC1=O (stereo not drawn)",
    "System name": "M14 melanoma",
    "Assay endpoint": "TGI",
    "Result": "> 100 µM"
  },
  {
    "Compound": "CCOC(=O)CCn1cnc(N)n1",
    "System name": "M14 melanoma",
    "Assay endpoint": "TGI",
    "Result": "> 100 µM"
  },
  {
    "Compound": "Oc1cccc2ccc(Br)nc12",
    "System name": "M14 melanoma",
    "Assay endpoint": "TGI",
    "Result": "> 100 µM"
  },
  {
    "Compound": "COC1C(=O)N(SC)C1c1ccccc1Cl (stereo not drawn)",
    "System name": "M14 melanoma",
    "Assay endpoint": "TGI",
    "Result": "94.2 µM"
  },
  {
    "Compound": "Nc1no[n+]([O-])c1-c1nnc2c(n1)-c1ccccc1C2=O",
    "System name": "M14 melanoma",
    "Assay endpoint": "TGI",
    "Result": "3.66 µM"
  },
  {
    "Compound": "O=C(OCc1ccccc1)n1cccc1",
    "System name": "M14 melanoma",
    "Assay endpoint": "TGI",
    "Result": "> 100 µM"
  },
  {
    "Compound": "Nn1c(CCCCCCCCc2n[nH]c(=S)n2N)n[nH]c1=S",
    "System name": "M14 melanoma",
    "Assay endpoint": "TGI",
    "Result": "> 100 µM"
  },
  {
    "Compound": "O=C(O)CCC(NC(=O)c1ccc(CNc2nc3cc(C(F)(F)F)ccc3nc2C(=O)O)cc1)C(=O)O (stereo not drawn)",
    "System name": "M14 melanoma",
    "Assay endpoint": "TGI",
    "Result": "> 100 µM"
  },
  {
    "Compound": "Cc1nn(C(=O)c2ccc(Cl)cc2)c2c1C(c1ccc(Cl)cc1)SC(N)=N2 (stereo not drawn)",
    "System name": "M14 melanoma",
    "Assay endpoint": "TGI",
    "Result": "> 10 µM"
  },
  {
    "Compound": "Cc1ccc(S(=O)(=O)NNC(=O)Nc2ccc([N+](=O)[O-])cc2)cc1",
    "System name": "M14 melanoma",
    "Assay endpoint": "TGI",
    "Result": "> 100 µM"
  },
  {
    "Compound": "COc1cc(OC)nc(-n2c(N)c(C(=O)O)c3ccc([N+](=O)[O-])cc3c2=O)n1",
    "System name": "M14 melanoma",
    "Assay endpoint": "TGI",
    "Result": "> 100 µM"
  },
  {
    "Compound": "O=C(O)c1[nH]c2c([N+](=O)[O-])cc([N+](=O)[O-])cc2c1C(=O)O",
    "System name": "M14 melanoma",
    "Assay endpoint": "TGI",
    "Result": "> 100 µM"
  },
  {
    "Compound": "COc1ccc(C(Nc2ccccn2)c2cc(C(C)(C)C)cc(C(C)(C)C)c2O)cc1 (stereo not drawn)",
    "System name": "M14 melanoma",
    "Assay endpoint": "TGI",
    "Result": "54.9 µM"
  },
  {
    "Compound": "CC1(C)CN(CCNc2nccc(-c3c(-c4cccc(O)c4)nc4sccn34)n2)S(=O)(=O)N1",
    "System name": "M14 melanoma",
    "Assay endpoint": "TGI",
    "Result": "> 26.4 µM"
  },
  {
    "Compound": "CC12CCC(=O)[C@@]1(C)CCCC2O (stereo partly drawn)",
    "System name": "M14 melanoma",
    "Assay endpoint": "TGI",
    "Result": "> 100 µM"
  },
  {
    "Compound": "Cc1cn2c(/C=C3\\C(=O)N(C)c4ccc(Cl)cc43)c(C)nc2s1",
    "System name": "M14 melanoma",
    "Assay endpoint": "TGI",
    "Result": "32.1 µM"
  },
  {
    "Compound": "N/C(=N/S(=O)(=O)c1cc(C(=O)Nc2ccc(F)cc2)c(Cl)cc1SCc1ccccc1)Nc1ccccc1O",
    "System name": "M14 melanoma",
    "Assay endpoint": "TGI",
    "Result": "14.4 µM"
  },
  {
    "Compound": "CC(=N/NC(N)=S)/C(C)=N/NC(N)=S",
    "System name": "M14 melanoma",
    "Assay endpoint": "TGI",
    "Result": "> 100 µM"
  },
  {
    "Compound": "N#CCC(=O)Nc1ccccc1O",
    "System name": "M14 melanoma",
    "Assay endpoint": "TGI",
    "Result": "> 100 µM"
  },
  {
    "Compound": "COc1ccc2nc3ccccc3c(NCc3ccccc3)c2c1",
    "System name": "M14 melanoma",
    "Assay endpoint": "TGI",
    "Result": "3.58 µM"
  },
  {
    "Compound": "NC(=O)c1ncn2c(=O)n(CCCl)nnc12",
    "System name": "M14 melanoma",
    "Assay endpoint": "TGI",
    "Result": "500 µM"
  },
  {
    "Compound": "COc1cc(-c2ccccc2)cn2c1nc1ccccc12",
    "System name": "M14 melanoma",
    "Assay endpoint": "TGI",
    "Result": "43.4 µM"
  },
  {
    "Compound": "CC(C)(C)OC(=O)C1/C(=C/CBr)CN1C(=O)OC(C)(C)C (stereo not drawn)",
    "System name": "M14 melanoma",
    "Assay endpoint": "TGI",
    "Result": "41.9 µM"
  },
  {
    "Compound": "Cn1c(=O)[nH]c2c(c1=O)C(=O)CN2",
    "System name": "M14 melanoma",
    "Assay endpoint": "TGI",
    "Result": "> 100 µM"
  },
  {
    "Compound": "Nc1nc(N)c(-c2ccc(Cl)c(Cl)c2)c(CP(Cl)(Cl)(Cl)Br)n1",
    "System name": "M14 melanoma",
    "Assay endpoint": "TGI",
    "Result": "> 100 µM"
  },
  {
    "Compound": "COC(=O)c1cc2c(cc1C(=O)OC)[C@@]1(C)CCCC(C)(C)C1CC2 (stereo partly drawn)",
    "System name": "M14 melanoma",
    "Assay endpoint": "TGI",
    "Result": "70.8 µM"
  },
  {
    "Compound": "Cc1ccc(O)c(C2=NNC(c3cccc(Cl)c3)C2)c1 (stereo not drawn)",
    "System name": "M14 melanoma",
    "Assay endpoint": "TGI",
    "Result": "> 100 µM"
  },
  {
    "Compound": "COc1ccc2[nH]c3c(O)c(-c4c(C)cc5c([nH]c6ccc(OC)cc65)c4O)c(C)cc3c2c1",
    "System name": "M14 melanoma",
    "Assay endpoint": "TGI",
    "Result": "7.99 µM"
  },
  {
    "Compound": "Cc1ccc(CN2CCN(Cc3ccc(C)o3)C(C)C2)o1 (stereo not drawn)",
    "System name": "M14 melanoma",
    "Assay endpoint": "TGI",
    "Result": "> 100 µM"
  },
  {
    "Compound": "Cc1cc(S(=O)(=O)NC2=NCC(C)(C)CN2)c(S)cc1Cl",
    "System name": "M14 melanoma",
    "Assay endpoint": "TGI",
    "Result": "> 100 µM"
  },
  {
    "Compound": "Oc1ccc(/C=N/NC(=S)Nc2cccnc2)nc1",
    "System name": "M14 melanoma",
    "Assay endpoint": "TGI",
    "Result": "> 33.3 µM"
  },
  {
    "Compound": "CCC(=O)CCC1=Nc2nnc(CCCCc3nnc4n3C(=O)C(CCC(=O)CC)=N4)n2C1=O",
    "System name": "M14 melanoma",
    "Assay endpoint": "TGI",
    "Result": "> 100 µM"
  },
  {
    "Compound": "CCCCNCCCCCNc1cc(OC)cc2cccnc12",
    "System name": "M14 melanoma",
    "Assay endpoint": "TGI",
    "Result": "28.5 µM"
  },
  {
    "Compound": "O=C(CC1Sc2ccccc2NC1=O)NNc1ccc(F)cc1 (stereo not drawn)",
    "System name": "M14 melanoma",
    "Assay endpoint": "TGI",
    "Result": "> 100 µM"
  },
  {
    "Compound": "NC(Cc1c[nH]c2cccc(F)c12)C(=O)O (stereo not drawn)",
    "System name": "M14 melanoma",
    "Assay endpoint": "TGI",
    "Result": "> 4500 µM"
  },
  {
    "Compound": "COC(=O)[C@@H]1[C@H]2CC[C@]3(C)[C@@H](OC(C)=O)CC[C@H]3[C@@H]2CC[C@H]1C(C)=O",
    "System name": "M14 melanoma",
    "Assay endpoint": "TGI",
    "Result": "> 100 µM"
  }
]

Taken from PubChem BioAssay (NCI).
